Sourced from patent US6610883B1

biological target: RARγ (Homo sapiens, UniProt P13631); test: Co-transfection (cis-trans) assay in CV-1 cells, RARγ; assay type: cell-based; parameters: expressed in transfected cells; host or cells: CV-1 (monkey kidney); conditions: CV-1, maximal response relative to all-trans-retinoic acid at 10^−5 M, read-out: Efficacy
Sequence (P13631 whole entry): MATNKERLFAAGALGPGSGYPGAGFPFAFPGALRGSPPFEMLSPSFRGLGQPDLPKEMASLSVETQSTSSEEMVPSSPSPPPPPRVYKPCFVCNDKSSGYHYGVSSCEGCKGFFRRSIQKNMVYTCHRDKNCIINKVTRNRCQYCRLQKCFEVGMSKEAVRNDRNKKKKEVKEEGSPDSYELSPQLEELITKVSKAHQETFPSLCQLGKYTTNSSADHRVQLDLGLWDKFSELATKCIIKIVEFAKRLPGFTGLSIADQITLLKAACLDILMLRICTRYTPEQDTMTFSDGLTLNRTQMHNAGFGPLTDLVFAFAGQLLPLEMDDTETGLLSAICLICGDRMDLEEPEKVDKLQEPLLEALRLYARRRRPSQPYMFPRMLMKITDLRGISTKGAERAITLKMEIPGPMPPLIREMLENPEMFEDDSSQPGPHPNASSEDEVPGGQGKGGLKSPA
Our labelling divides records by Emax at 10 µM into ranges: category 1 = under 20%, category 2 = from 20% up to 40%, category 3 = 40% and over

>>> answer_label("C=C(c1ccc(C(=O)O)cn1)c1cc2c(cc1C)C(C)(C)CCC2(C)C [TPNEP (58)]")
"category 2"
>>> answer_label("CC1=C(/C=C/C(=C\\C=C\\C(C)=C\\C(=O)O)C(C)C)C(C)(C)CCC1 [Compound 75]")
"category 3"
>>> answer_label("C=C(c1ccc(C(=O)O)cc1)c1cc2c(cc1Br)C(C)(C)CCC2(C)C [3-Bromo-TTNEB]")
"category 1"
>>> answer_label("CC(/C=C/C1(c2cc3c(cc2C)C(C)(C)CCC3(C)C)CC1)=C\\C(=O)O [Compound 104]")
"category 2"
>>> answer_label("CC1=C(C=CC2CCCCC2/C=C/C(C)=C/C(=O)O)C(C)(C)CCC1 (stereo not drawn) [Compound 100]")
"category 1"
>>> answer_label("CC(/C=C/C=C(\\c1ccc2c(c1)C(C)(C)CCC2(C)C)C(C)C)=C\\C(=O)O [Compound 123]")
"category 3"
>>> answer_label("Cc1cc2c(cc1C(=O)c1ccc(C(=O)Nc3ccc(O)cc3)cc1)C(C)(C)CCC2(C)C [3-Methyl-TTNCHBP]")
"category 1"
>>> answer_label("CC1=C(/C=C/C(=C\\C=C\\C(C)=C\\C(=O)O)C(C)(C)C)C(C)(C)CCC1 [Compound 77]")
"category 3"
>>> answer_label("C=C(c1ccc(C(=O)Nc2ccc(O)cc2)cc1)c1cc2c(cc1C)C(C)(C)CCC2(C)C [3-Methyl-TTNEHBP (63)]")
"category 1"
>>> answer_label("C/C(=C/C=C/C(C)=C/C(=O)O)c1cc2c(cc1C)C(C)(C)CCC2(C)C [Compound 128]")
"category 2"
>>> answer_label("CC1=C(/C=C/C2(C/C=C/C(C)=C/C(=O)O)CC2)C(C)(C)CCC1 [Compound 110]")
"category 2"
>>> answer_label("CCCC(=C/C=C/C(C)=C/C(=O)O)/C=C/C1=C(C)CCCC1(C)C [Compound 74]")
"category 3"
